Source: patent US8981094B2

ENDPOINT NAME: melting point

**Query** Which melting point is listed for COc1ccc(CNCCC(=O)Nc2ccc(N3CCN(C(=O)Nc4c(Cl)cccc4Cl)CC3)cc2)cc1 ?
**Result** 188 to 189 °C

**Query** Item: C=CCN(CC(=O)Nc1ccc(N2CCN(C(=O)Nc3c(Cl)cc(OC)cc3OC)CC2)cc1)c1ccc(C)cc1C
**Result** 181 to 182 °C

**Query** Item: CN(CC(=O)Nc1ccc(N2CCN(C(=O)Nc3c(Cl)cccc3Cl)CC2)cc1)C(=O)NC(C)(C)C
**Result** 214 to 215 °C

----------
Test system human DGAT1 (Homo sapiens), IC50 listed for each of the molecules.
Your answer should be a plain number; it is taken to be in nM.

**Query** Tell me reported IC50 for COc1ccc(CNCCC(=O)Nc2ccc(N3CCN(C(=O)Nc4c(Cl)cccc4Cl)CC3)cc2)cc1 , tested with human DGAT1 (Homo sapiens).
Sequence (O75907 whole entry): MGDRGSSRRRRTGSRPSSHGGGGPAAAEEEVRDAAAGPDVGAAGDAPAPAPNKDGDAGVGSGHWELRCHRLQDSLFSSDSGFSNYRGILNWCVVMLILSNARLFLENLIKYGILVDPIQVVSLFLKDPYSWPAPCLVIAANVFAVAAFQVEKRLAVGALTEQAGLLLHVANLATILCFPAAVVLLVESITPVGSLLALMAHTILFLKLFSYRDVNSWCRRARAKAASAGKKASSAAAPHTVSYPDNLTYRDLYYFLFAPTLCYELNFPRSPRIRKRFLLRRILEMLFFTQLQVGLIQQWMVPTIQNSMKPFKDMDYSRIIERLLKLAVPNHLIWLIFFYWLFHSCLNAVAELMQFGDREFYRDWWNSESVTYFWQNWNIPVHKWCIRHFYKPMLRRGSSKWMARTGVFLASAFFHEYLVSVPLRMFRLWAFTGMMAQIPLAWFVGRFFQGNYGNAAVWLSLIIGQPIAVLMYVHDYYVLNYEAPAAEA
**Result** 347

**Query** Item: COc1ccc(C)cc1NC(=O)N1CCN(c2ccc(NC(=O)CCCc3ccccc3)cc2)CC1
**Result** 5620

**Query** Item: C=CCNCC(=O)Nc1ccc(C2CCN(C(=O)Nc3c(Cl)cccc3Cl)CC2)cc1
**Result** 575

**Query** Item: CC(O)c1cc(Cl)c(NC(=O)N2CCN(c3ccc(NC(=O)CCCc4ccccc4)cc3)CC2)c(Cl)c1 (stereo not shown) [Compound 29]
**Result** 3.98

**Query** Item: COc1ccc(CNCC(=O)Nc2ccc(N3CCN(C(=O)Nc4c(Cl)cccc4Cl)CC3)cc2)cc1
**Result** 245

**Query** Item: Cc1cc(Cl)c(CC(=O)N2CCN(c3ccc(C(=O)NCc4cccc(N5CCCC5)c4)cc3)CC2)c(Cl)n1
**Result** 129

**Query** Item: O=C(CNc1ccccc1)Nc1ccc(N2CCN(C(=O)Nc3c(Cl)cccc3Cl)CC2)cc1
**Result** 72.4

**Query** Item: COc1ccc(CC(=O)Nc2ccc(N3CCN(C(=O)Oc4c(Cl)cc(CN(C)C)cc4Cl)CC3)cc2)cc1
**Result** 44.7

**Query** Item: COCCOCC(=O)N(C)CC(=O)Nc1ccc(N2CCN(C(=O)Nc3c(Cl)cccc3Cl)CC2)cc1
**Result** 1410

**Query** Item: Cc1cc(C)c(NC(=O)N2CCN(c3ccc(NC(=O)CCCc4ccccc4)cc3)CC2)c(Cl)c1
**Result** 7.08

**Query** Item: O=C(NCc1cccc(N2CCCC2)c1)c1ccc(N2CCN(C(=O)Cc3c(Cl)cccc3Cl)CC2)cc1
**Result** 50.1

**Query** Item: O=C(CCCc1ccccc1)Nc1ccc(N2CCN(C(=O)Nc3c(F)c(F)c(F)c(F)c3F)CC2)cc1
**Result** 3310

**Query** Item: O=C(CCCc1ccccc1)Nc1ccc(N2CCN(C(=O)Nc3c(Cl)cccc3Cl)CC2)cc1
**Result** 5.37

**Query** Item: O=C(CNc1ccccc1)Nc1ccc(C2CCN(C(=O)Nc3c(Cl)cccc3Cl)CC2)cc1
**Result** 87.1

**Query** Item: CC(C)(C)OC(=O)NCCC(=O)Nc1ccc(C2CCN(C(=O)Nc3c(Cl)cccc3Cl)CC2)cc1
**Result** 97.7

**Query** Item: O=C(CCCc1ccccc1)Nc1ccc(N2CCN(/C=C/C(=O)c3c(Cl)cccc3Cl)CC2)cc1
**Result** 120
